Catalogue of viability, T/C readings, one per entry.
System: 521955-158-R6-J3-PDC complex spheroid growth, % test/control
Experimental protocol: Anticancer human tumor 521955-158-R6-J3-PDC patient-derived pancreatic carcinoma cell line growth inhibition [Asc]
Condition summary: second compound 3 µM; first compound 0.1 µM; active compounds read low
Numeric answer only, unit % assumed.

COc1c(OCCCN2CCOCC2)ccc2c3n(c(=NC(=O)c4cnc(N)nc4)nc12)CCN3 + CCN1C(C(=O)NC23CCC(C(=O)O)(CC2)CC3)C(c2cccc(Cl)c2F)C2(C(=O)Nc3cc(Cl)ccc32)C12CCCCC2 : 65
C=C(F)C(=O)N1CCN(c2nc(OCC3CCCN3C)nc3c2CCN(c2cccc4cccc(Cl)c24)C3)CC1CC#N (stereo not given) + CCN1C(C(=O)NC23CCC(C(=O)O)(CC2)CC3)C(c2cccc(Cl)c2F)C2(C(=O)Nc3cc(Cl)ccc32)C12CCCCC2 : 109

Sample C=CC(=O)N1CCN(c2nc(=O)n(-c3c(C)ccnc3C(C)C)c3nc(-c4c(O)cccc4F)c(F)cc23)C(C)C1 (stereo not given) + CCN1C(C(=O)NC23CCC(C(=O)O)(CC2)CC3)C(c2cccc(Cl)c2F)C2(C(=O)Nc3cc(Cl)ccc32)C12CCCCC2 — what was its viability, T/C?
95.8

Request: Cn1ncnc1[C@H]1c2n[nH]c(=O)c3cc(F)cc(c23)N[C@@H]1c1ccc(F)cc1 + CCN1C(C(=O)NC23CCC(C(=O)O)(CC2)CC3)C(c2cccc(Cl)c2F)C2(C(=O)Nc3cc(Cl)ccc32)C12CCCCC2
99

Request: NC1CCC(NC2CC2c2ccccc2)CC1 (stereo not given) + CCN1C(C(=O)NC23CCC(C(=O)O)(CC2)CC3)C(c2cccc(Cl)c2F)C2(C(=O)Nc3cc(Cl)ccc32)C12CCCCC2
88.7

###

Tested on: 521955-158-R6-J3-PDC complex spheroid growth, % test/control
Experimental protocol: Anticancer human tumor 521955-158-R6-J3-PDC cell line growth inhibition [Asc];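 note: spheroids exposed to compounds for 7 days; 100% = DMSO vehicle control wells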
Condition summary: second compound 0.00949 µM; first compound 0.00316 µM; active compounds read low
Outcome measure: viability, T/C (%)
Numeric answer only, unit % assumed.

Sample Cn1ncnc1[C@H]1c2n[nH]c(=O)c3cc(F)cc(c23)N[C@@H]1c1ccc(F)cc1 + CCN1C(C(=O)NC23CCC(C(=O)O)(CC2)CC3)C(c2cccc(Cl)c2F)C2(C(=O)Nc3cc(Cl)ccc32)C12CCCCC2 — what was its viability, T/C?
98.8

Request: NC1CCC(NC2CC2c2ccccc2)CC1 (stereo unspecified) + CCN1C(C(=O)NC23CCC(C(=O)O)(CC2)CC3)C(c2cccc(Cl)c2F)C2(C(=O)Nc3cc(Cl)ccc32)C12CCCCC2
90.5

Request: COc1c(OCCCN2CCOCC2)ccc2c3n(c(=NC(=O)c4cnc(N)nc4)nc12)CCN3 + CCN1C(C(=O)NC23CCC(C(=O)O)(CC2)CC3)C(c2cccc(Cl)c2F)C2(C(=O)Nc3cc(Cl)ccc32)C12CCCCC2
102

###

Catalogue of viability, T/C readings, one per entry.
System: 521955-158-R6-J3-PDC complex spheroid growth, % test/control
Experimental protocol: Anticancer human tumor 521955-158-R6-J3-PDC cell line growth inhibition [Asc];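 note: spheroids exposed to compounds for 7 days; 100% = DMSO vehicle control wells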
Condition summary: second compound 0.0316 µM; first compound 1 µM; active compounds read low
Numeric answer only, unit % assumed.

O=C(c1ccc(F)c(F)c1Nc1ccc(I)cc1F)N1CC(O)([C@@H]2CCCCN2)C1 + Cc1c(S(C)(=O)=O)c(-c2cc(F)cc(N3CCN(c4ccc(NS(=O)(=O)c5ccc(NC(CCN6CCC(C(=O)OCCCP(=O)(O)O)CC6)CSc6ccccc6)c(S(=O)(=O)C(F)(F)F)c5)cc4)CC3)c2)c(-c2ccc(Cl)cc2)n1C(C)C : 26.7
C#Cc1c(F)ccc2cc(O)cc(-c3ncc4c(N5CC6CCC(C5)N6)nc(OCC56CCCN5CC(F)C6)nc4c3F)c12 (stereo not drawn) + Cc1c(S(C)(=O)=O)c(-c2cc(F)cc(N3CCN(c4ccc(NS(=O)(=O)c5ccc(NC(CCN6CCC(C(=O)OCCCP(=O)(O)O)CC6)CSc6ccccc6)c(S(=O)(=O)C(F)(F)F)c5)cc4)CC3)c2)c(-c2ccc(Cl)cc2)n1C(C)C : 24

# evaluate next
Sample COc1c(OCCCN2CCOCC2)ccc2c3n(c(=NC(=O)c4cnc(N)nc4)nc12)CCN3 + Cc1c(S(C)(=O)=O)c(-c2cc(F)cc(N3CCN(c4ccc(NS(=O)(=O)c5ccc(NC(CCN6CCC(C(=O)OCCCP(=O)(O)O)CC6)CSc6ccccc6)c(S(=O)(=O)C(F)(F)F)c5)cc4)CC3)c2)c(-c2ccc(Cl)cc2)n1C(C)C — what was its viability, T/C?
27.4
